The entries below come with measured melting point values attached.

>  <molecule>
CC(C)(C(=O)Nc1cccc(Cl)c1)N1COC(CBr)=C(c2ccccc2)C1=O

>  <melting point>
89.8 to 90.8 °C

$$$$
>  <molecule>
CCC(N)=C(C(C)=O)C(=O)N(CCN(C)C)c1cccc(F)c1

>  <melting point>
96 to 97 °C

$$$$
>  <molecule>
COc1ccc(-c2ccc(N3CCCN(c4ccc(-c5ccc(OC)c(OC)c5)cn4)CC3)nc2)cc1OC

>  <melting point>
190 to 192 °C

$$$$
>  <molecule>
C#CCCCCn1ncc2c(N)c(C(=O)OCC)c(C)nc21

>  <melting point>
63 to 65 °C

$$$$
>  <molecule>
CCOC(=O)C1(n2cc(Cl)cc2C(=O)C(Cl)(Cl)Cl)CC(=O)NC1=O (stereo not given)

>  <melting point>
182 to 185 °C

$$$$
>  <molecule>
OCCOc1ccc(C=Cc2ncn(CC(O)(Cn3cncn3)c3ccc(F)cc3F)n2)cc1 (stereo not given)

>  <melting point>
152 to 155 °C

$$$$
>  <molecule>
Cc1cc(Cl)cc2c1OC(C)(C)C(/C=C/C=C/C=C/C(=O)O)=C2

>  <melting point>
190 to 192 °C

$$$$
>  <molecule>
CSC(=NC#N)Nc1ccc(C#N)cc1

>  <melting point>
220 to 225 °C

$$$$
>  <molecule>
Clc1ccc2c(NCCCCCCCCCNc3ncnc4cc(Cl)ccc34)ncnc2c1

>  <melting point>
159 to 162 °C

$$$$
>  <molecule>
O=c1[nH]c(=O)n(CCCCBr)c2ccc(Cl)cc12

>  <melting point>
154 to 156 °C

$$$$

====

Listing: melting point of selected compounds

>  <compound>
CCCc1nc2c(N)nc3ccccc3c2n1CCOCCCSC

>  <melting point>
99 to 101 °C

$$$$
>  <compound>
CC(C)(C)c1cc(-c2nc(Br)no2)cc(C(C)(C)C)c1O

>  <melting point>
113 to 115 °C

$$$$
>  <compound>
CC(CNS(C)(=O)=O)Nc1nc(Cl)ncc1Cl (stereo not given)

>  <melting point>
160 °C

$$$$
>  <compound>
O=C(O)C(=O)Nc1c(-c2ccccc2)c(=O)[nH]c2cc(Cl)ccc12

>  <melting point>
240 °C

$$$$
>  <compound>
CCCCCCCC1=CC(=O)NC1(O)CN (stereo not given)

>  <melting point>
176 °C

$$$$
>  <compound>
COC(=O)N1CCC(c2nn(-c3ccc(F)cc3)c3ccccc23)CC1

>  <melting point>
95 to 97 °C

$$$$
>  <compound>
COc1ccc(N2C3CCC(C(=O)C3)C2c2ccc(Cl)cc2)cc1OC (stereo not given)

>  <melting point>
42 to 43 °C

$$$$
>  <compound>
CN1C(=O)N(c2cc(Cl)nc(Cl)c2)C(=O)[C@]12CNC[C@H]2c1ccc(C#N)cc1 (relative stereo)

>  <melting point>
202 °C

$$$$
>  <compound>
CC1(C)Oc2c(cc(Cl)c3oc(C(=O)O)cc(=O)c23)-c2ccc(S(=O)(=O)O)cc21

>  <melting point>
257 to 259 °C

$$$$
>  <compound>
COC(=O)C1=C(C)NN=C(c2cccc(Cl)c2)C1c1cccc(Cl)c1 (stereo not given)

>  <melting point>
204 °C

$$$$

Value source: a melting point compilation (Tetko et al.; mined from patent text by program, amines drawn as free bases though some values may be those of a salt)
